Please go through the items and note down their viability, T/C.
Tested on: PDC 521955-158-R6-J3 spheroids, viability;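 also: spheroids exposed to drugs for 7 days before readout; 100% = DMSO vehicle control viability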
Experiment: Anticancer human tumor 521955-158-R6-J3-PDC patient-derived pancreatic carcinoma cell line growth inhibition [TAK]
Details: second compound 0.949 µM; first compound 0.316 µM; active compounds read low; spheroids with HUVEC and MSC
Value expressed in %; do not type the unit.

Look up viability, T/C: COc1c(OCCCN2CCOCC2)ccc2c3n(c(=NC(=O)c4cnc(N)nc4)nc12)CCN3 + CC(C)NCC(C(=O)N1CCN(c2ncnc3c2C(C)CC3O)CC1)c1ccc(Cl)cc1 25.9

Could you do the same for CCCS(=O)(=O)Nc1ccc(F)c(C(=O)c2c[nH]c3ncc(-c4ccc(Cl)cc4)cc23)c1F + CC(C)NCC(C(=O)N1CCN(c2ncnc3c2C(C)CC3O)CC1)c1ccc(Cl)cc1 , please? 98.1

Could you do the same for Cc1nc(NC(=O)N2CCCC2C(N)=O)sc1-c1ccnc(C(C)(C)C(F)(F)F)c1 (centres undefined) + CC(C)NCC(C(=O)N1CCN(c2ncnc3c2C(C)CC3O)CC1)c1ccc(Cl)cc1 , please? 57.3

Could you do the same for CC(C)(C)c1nc(-c2cccc(NS(=O)(=O)c3c(F)cccc3F)c2F)c(-c2ccnc(N)n2)s1 + CC(C)NCC(C(=O)N1CCN(c2ncnc3c2C(C)CC3O)CC1)c1ccc(Cl)cc1 , please? 136
